The origin of these recorded values is patent US9284303B2.

Give measured pEC50 for each item. Keep answers brief.
TEST_SYSTEM: human CB1 (hCB1) receptor (Homo sapiens, UniProt P21554)
Construct: expressed in transfected cells; host or cells: CHO-K1
Sequence (P21554 whole entry): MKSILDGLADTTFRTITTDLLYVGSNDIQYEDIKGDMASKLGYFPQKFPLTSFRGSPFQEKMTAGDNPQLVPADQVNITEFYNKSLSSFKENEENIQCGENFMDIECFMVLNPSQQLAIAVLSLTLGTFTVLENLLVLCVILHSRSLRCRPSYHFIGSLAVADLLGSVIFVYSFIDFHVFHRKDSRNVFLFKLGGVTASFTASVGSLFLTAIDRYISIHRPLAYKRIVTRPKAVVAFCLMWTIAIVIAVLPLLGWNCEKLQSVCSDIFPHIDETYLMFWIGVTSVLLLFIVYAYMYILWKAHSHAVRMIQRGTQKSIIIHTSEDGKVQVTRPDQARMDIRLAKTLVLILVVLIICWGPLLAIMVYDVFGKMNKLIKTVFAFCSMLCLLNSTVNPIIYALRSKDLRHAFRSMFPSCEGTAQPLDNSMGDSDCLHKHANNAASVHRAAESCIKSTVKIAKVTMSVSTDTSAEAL
TEST_PROTOCOL: Inhibition of forskolin-activated cAMP production upon activation of hCB1 (HTRF), CHO-K1 cells
Assay type: cell-based
DETAILS: CB1 pEC50, hCB1-CHO-K1 cells, forskolin-activated cAMP, pEC50=-log(EC50)
Entry type: numeric. Quantity: pEC50, the -log10 of concentration in molar units.

### Prompt Write pEC50 of CC(C)(C)c1nc2cc(S(=O)(=O)c3ccc(S(C)(=O)=O)s3)ccc2n1CC1CCOCC1 [Co. No. 58] ; system used: human CB1 (hCB1) receptor (Homo sapiens, UniProt P21554)
### Response 5.74

### Prompt Write pEC50 of CC(C)(C)c1nc2cc(S(=O)(=O)c3ccc(C#N)nc3)ccc2n1CC1CCOCC1 ; system used: human CB1 (hCB1) receptor (Homo sapiens, UniProt P21554)
### Response 7.05

### Prompt Write pEC50 of CC(C)(C)c1nc2cc(S(=O)(=O)c3ccnc(C#N)c3)ccc2n1CC1CCOCC1 [Co. No. 17] ; system used: human CB1 (hCB1) receptor (Homo sapiens, UniProt P21554)
### Response 5.03

### Prompt Write pEC50 of CC(C)(C)c1nc2cc(S(=O)(=O)c3cc[n+]([O-])cc3Br)ccc2n1CC1CCOCC1 ; system used: human CB1 (hCB1) receptor (Homo sapiens, UniProt P21554)
### Response 5.64

### Prompt Write pEC50 of CC(C)(C)c1nc2cc(S(=O)(=O)c3cc(Cl)cc(Cl)n3)ccc2n1CC1CCOCC1 ; system used: human CB1 (hCB1) receptor (Homo sapiens, UniProt P21554)
### Response 5.02

### Prompt Write pEC50 of COc1c[n+]([O-])ccc1S(=O)(=O)c1ccc2c(c1)nc(C(C)(C)C)n2CC1CCOCC1 ; system used: human CB1 (hCB1) receptor (Homo sapiens, UniProt P21554)
### Response 5.44

### Prompt Write pEC50 of CC(C)(C)c1nc2cc([S+]([O-])c3c(Cl)cncc3Cl)ccc2n1CC1CCOCC1 (centres unmarked) ; system used: human CB1 (hCB1) receptor (Homo sapiens, UniProt P21554)
### Response 6.08
